A collection of molecules and their measured IC50
Molecular target: IGFR-1 (Homo sapiens, UniProt P08069)
Construct: Kinases are expressed as either kinase domains or full length constructs; made in house
Sequence (P08069 31-1367): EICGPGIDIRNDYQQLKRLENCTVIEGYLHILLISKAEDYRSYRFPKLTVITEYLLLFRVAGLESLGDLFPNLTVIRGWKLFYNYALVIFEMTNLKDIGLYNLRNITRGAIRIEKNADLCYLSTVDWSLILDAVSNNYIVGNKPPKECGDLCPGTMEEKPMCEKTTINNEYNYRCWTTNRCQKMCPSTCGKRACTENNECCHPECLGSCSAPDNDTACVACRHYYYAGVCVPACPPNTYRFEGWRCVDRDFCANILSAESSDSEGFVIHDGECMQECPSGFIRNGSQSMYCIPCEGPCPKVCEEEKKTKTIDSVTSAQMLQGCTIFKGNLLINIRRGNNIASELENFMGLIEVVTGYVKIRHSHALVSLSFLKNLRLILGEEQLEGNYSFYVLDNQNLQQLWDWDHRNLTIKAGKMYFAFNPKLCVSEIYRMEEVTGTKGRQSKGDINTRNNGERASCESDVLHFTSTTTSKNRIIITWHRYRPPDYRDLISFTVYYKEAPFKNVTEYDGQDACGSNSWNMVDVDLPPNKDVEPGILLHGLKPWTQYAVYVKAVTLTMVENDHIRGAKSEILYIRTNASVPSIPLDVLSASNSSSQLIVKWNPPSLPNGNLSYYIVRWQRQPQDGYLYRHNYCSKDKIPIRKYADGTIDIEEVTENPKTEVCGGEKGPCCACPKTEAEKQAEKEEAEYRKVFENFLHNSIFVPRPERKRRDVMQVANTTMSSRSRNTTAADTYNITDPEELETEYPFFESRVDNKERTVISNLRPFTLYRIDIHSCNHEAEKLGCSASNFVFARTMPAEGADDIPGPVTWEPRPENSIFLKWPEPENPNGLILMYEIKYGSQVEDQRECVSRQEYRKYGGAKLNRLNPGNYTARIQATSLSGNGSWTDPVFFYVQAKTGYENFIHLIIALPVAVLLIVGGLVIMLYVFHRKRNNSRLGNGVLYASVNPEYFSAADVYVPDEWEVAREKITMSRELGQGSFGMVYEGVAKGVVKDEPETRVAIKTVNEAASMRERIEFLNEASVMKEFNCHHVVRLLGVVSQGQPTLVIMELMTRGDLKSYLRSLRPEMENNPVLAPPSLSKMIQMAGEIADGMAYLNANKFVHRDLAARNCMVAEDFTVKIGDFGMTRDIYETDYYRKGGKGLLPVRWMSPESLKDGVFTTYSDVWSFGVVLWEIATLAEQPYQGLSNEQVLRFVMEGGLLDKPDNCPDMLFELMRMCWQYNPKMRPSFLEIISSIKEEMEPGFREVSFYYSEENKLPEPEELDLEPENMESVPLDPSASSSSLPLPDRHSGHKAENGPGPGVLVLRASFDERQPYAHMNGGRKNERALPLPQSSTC
Assay: Kinase inhibition assay (33P transfer), IGFR-1
Format: biochemical
Conditions: Table 2, kinase inhibition class

Examples with their reported IC50 follow.
COc1cc(Nc2ncnc(Nc3cccc(Br)c3)n2)cc(OC)c1OC : < 0.925 µM
COc1cc(Nc2ncnc(N3CCN(c4ncccn4)CC3)n2)cc(OC)c1OC : > 10.6 µM
COc1ccc(Nc2ncnc(Nc3ccc(Br)cc3F)n2)cc1OC : > 10.7 µM
COc1ccc(Nc2ncnc(Nc3ccc(Oc4ccccc4)cc3)n2)cc1OC : 8.42 to 10.8 µM

query: Tell me the measured IC50 of "COc1cc(Nc2ncnc(Nc3ccc4[nH]ncc4c3)n2)cc(OC)c1OC" , please.
result: < 1.02 µM

###

A collection of molecules and their measured IC50
Target: AKT (Homo sapiens, UniProt Q9Y243)
Construct: Kinases are expressed as either kinase domains or full length constructs; made in house
Sequence (Q9Y243 whole entry, the tested form may be a part): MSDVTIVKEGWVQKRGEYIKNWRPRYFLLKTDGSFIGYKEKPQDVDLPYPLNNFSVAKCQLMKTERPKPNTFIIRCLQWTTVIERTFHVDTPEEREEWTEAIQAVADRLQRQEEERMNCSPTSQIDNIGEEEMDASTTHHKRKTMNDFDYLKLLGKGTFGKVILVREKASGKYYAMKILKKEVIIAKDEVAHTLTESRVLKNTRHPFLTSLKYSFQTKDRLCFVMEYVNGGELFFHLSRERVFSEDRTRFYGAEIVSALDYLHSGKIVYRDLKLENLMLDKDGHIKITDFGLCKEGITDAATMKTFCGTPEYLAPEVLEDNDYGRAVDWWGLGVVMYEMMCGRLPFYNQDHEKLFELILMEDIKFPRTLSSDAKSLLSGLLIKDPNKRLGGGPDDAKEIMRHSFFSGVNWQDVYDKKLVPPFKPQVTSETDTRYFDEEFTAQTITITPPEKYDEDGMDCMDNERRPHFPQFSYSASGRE
Test: Kinase inhibition assay (33P transfer), AKT
Type: biochemical
Conditions: Table 2, class symbols A-E; read-out: AKT3-1

Examples with their reported IC50 follow.
c1ccc(Cn2ncc3cc(Nc4ncnc(Nc5cccc(Cn6ccnn6)c5)n4)ccc32)cc1 : 5.06 to 7.38 µM
COc1cc(Nc2ncnc(-c3cccnc3Nc3ccc(C(F)(F)F)cc3)n2)cc(OC)c1OC : > 9.03 µM
CCOc1cccc(Nc2ncnc(N3CCCc4cc(C)ccc43)n2)c1 : > 12.4 µM
COc1cc(Nc2ncnc(-c3cccnc3NC(C)c3ccccc3)n2)cc(OC)c1OC (centres unmarked) : > 9.81 µM

query: Tell me the measured IC50 of "COc1ccc(Nc2ncnc(NCc3ccc(C)c(Cl)c3)n2)cc1OC" , please.
result: > 11.7 µM

query: Tell me the measured IC50 of "COc1ccc(Nc2ncnc(N(C)c3ccccc3OC(F)(F)F)n2)cc1OC" , please.
result: 0.949 to 5.7 µM

query: Tell me the measured IC50 of "COc1ccc(Nc2ncnc(NCc3cccc(Cl)c3)n2)cc1OC" , please.
result: > 12.1 µM

query: Tell me the measured IC50 of "CNC(=O)c1cccc(Nc2ncnc(Nc3cc(-c4ccco4)[nH]n3)n2)c1" , please.
result: > 12 µM

###

Biological target: PDGFRB (Homo sapiens, UniProt P09619)
Construct: Kinases are expressed as either kinase domains or full length constructs; made in house
Sequence (P09619 33-1106, species assumed): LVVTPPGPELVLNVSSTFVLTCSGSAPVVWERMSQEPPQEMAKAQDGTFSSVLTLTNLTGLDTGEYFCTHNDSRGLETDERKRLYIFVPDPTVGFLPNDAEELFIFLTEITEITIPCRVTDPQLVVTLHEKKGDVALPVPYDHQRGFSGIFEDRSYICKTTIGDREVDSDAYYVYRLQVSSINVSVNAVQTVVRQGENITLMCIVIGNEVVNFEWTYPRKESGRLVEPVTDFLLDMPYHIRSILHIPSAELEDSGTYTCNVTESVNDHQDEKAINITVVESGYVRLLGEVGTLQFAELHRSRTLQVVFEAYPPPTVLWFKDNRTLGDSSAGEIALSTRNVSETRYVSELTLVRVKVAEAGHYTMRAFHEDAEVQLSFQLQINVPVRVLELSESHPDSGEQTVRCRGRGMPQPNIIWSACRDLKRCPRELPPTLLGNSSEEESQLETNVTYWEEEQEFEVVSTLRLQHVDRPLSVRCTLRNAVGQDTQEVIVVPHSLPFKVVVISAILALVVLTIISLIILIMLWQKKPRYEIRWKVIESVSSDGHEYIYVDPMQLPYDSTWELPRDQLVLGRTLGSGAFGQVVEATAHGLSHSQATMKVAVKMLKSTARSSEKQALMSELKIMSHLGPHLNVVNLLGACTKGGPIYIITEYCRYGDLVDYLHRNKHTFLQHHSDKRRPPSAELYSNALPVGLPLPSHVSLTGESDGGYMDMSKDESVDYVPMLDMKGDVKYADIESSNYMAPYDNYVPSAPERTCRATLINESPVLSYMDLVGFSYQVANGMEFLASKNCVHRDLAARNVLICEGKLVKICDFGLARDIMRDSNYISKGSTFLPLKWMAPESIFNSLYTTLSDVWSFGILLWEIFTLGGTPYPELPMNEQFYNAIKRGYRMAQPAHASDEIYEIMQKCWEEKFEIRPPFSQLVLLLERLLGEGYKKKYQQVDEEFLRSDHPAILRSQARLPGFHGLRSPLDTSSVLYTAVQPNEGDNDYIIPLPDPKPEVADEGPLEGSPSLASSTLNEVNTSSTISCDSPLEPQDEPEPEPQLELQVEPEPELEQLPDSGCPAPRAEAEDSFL
Assay: Kinase inhibition assay (33P transfer), PDGFRB
Type: biochemical
Details: read-out: PDGFRB-1
pIC50: −log10 of the molar value.
endpoint: pIC50

Examples with their reported pIC50 follow.
COc1cccc(Nc2ncnc(Nc3cc(OC)c(OC)c(OC)c3)n2)c1 : > 5.98
COc1cc(Nc2ncnc(-c3cccnc3NC(C)C)n2)cc(OC)c1OC : > 6.00
COc1cc(Nc2ncnc(-n3c(N)nc4ccccc43)n2)cc(OC)c1OC : > 5.99

query: Tell me the measured pIC50 of "NC(=O)c1ccc(Nc2ncnc(-n3c(N)nc4ccccc43)n2)cc1" , please.
result: 5.16 to 5.94

query: Tell me the measured pIC50 of "COc1cc(Nc2ncnc(Nc3ccc4c(cnn4Cc4ccccc4)c3)n2)cc(OC)c1OC" , please.
result: > 6.08

query: Tell me the measured pIC50 of "COc1cc(Nc2ncnc(-n3c(NCCc4ccccn4)nc4ccccc43)n2)cc(OC)c1OC" , please.
result: 5.15 to 5.32

query: Tell me the measured pIC50 of "COc1cc(Nc2ncnc(-n3cc(C)c4ccccc43)n2)cc(OC)c1OC" , please.
result: > 5.99

query: Tell me the measured pIC50 of "COc1ccc(CNc2nc3ccccc3n2-c2ncnc(Nc3cc(OC)c(OC)c(OC)c3)n2)cc1OC" , please.
result: 5.19 to 5.36

###

Target: Itk (Homo sapiens, UniProt Q08881)
Construct: Kinases are expressed as either kinase domains or full length constructs; made in house
Sequence (Q08881 1-620): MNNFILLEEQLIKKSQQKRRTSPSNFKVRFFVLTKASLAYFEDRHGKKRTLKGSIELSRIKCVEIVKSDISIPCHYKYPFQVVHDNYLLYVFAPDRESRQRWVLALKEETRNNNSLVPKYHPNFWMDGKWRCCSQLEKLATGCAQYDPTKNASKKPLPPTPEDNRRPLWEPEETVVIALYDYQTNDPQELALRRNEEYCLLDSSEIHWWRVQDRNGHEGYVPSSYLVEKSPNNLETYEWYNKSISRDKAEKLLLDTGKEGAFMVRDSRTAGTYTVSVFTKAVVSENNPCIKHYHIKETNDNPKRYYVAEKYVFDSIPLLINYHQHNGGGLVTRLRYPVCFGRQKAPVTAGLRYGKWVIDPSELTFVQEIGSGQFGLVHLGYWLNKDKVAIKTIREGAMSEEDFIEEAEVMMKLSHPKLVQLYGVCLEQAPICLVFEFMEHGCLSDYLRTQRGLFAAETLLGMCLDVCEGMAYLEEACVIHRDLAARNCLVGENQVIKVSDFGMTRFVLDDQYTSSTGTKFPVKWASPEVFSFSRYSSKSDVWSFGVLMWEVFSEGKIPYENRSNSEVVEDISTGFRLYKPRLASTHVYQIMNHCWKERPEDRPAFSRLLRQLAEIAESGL
Assay: Kinase inhibition assay (33P transfer), Itk
Format: biochemical
Settings: Table 3, class symbols; read-out: Itk-1
A collection of molecules and their measured IC50

Examples with their reported IC50 follow.
COc1cc(Nc2ncnc(Nc3cc(Cl)c(NC(=O)c4ccccc4)cc3C)n2)cc(OC)c1OC : > 8.64 µM
O=C(O)Cc1cccc(Nc2ncnc(-c3cccnc3NCc3ccc(F)cc3)n2)c1 : > 10.5 µM
COc1cc(Nc2ncnc(-c3cccnc3Nc3ccc(C(C)=O)cc3)n2)cc(OC)c1OC : > 9.52 µM
CCN(c1cccc(Cl)c1)c1ncnc(Nc2cc(OC)cc(OC)c2)n1 : 1.04 to 6.22 µM

query: Item: "c1ccc(CNc2nc3ccccc3n2-c2ncnc(Nc3cccc(Cn4ccnn4)c3)n2)cc1" Test system: Itk (Homo sapiens, UniProt Q08881) Read-out: IC50 Value: ?
result: 5.06 to 7.38 µM

query: Item: "CCOC(=O)c1cccc(Nc2ncnc(Nc3cc(-c4ccc(C(=O)OC)cc4)n[nH]3)n2)c1" Test system: Itk (Homo sapiens, UniProt Q08881) Read-out: IC50 Value: ?
result: 0.871 to 5.22 µM

query: Item: "COc1cc(Nc2ncnc(N3CCCc4c(Cl)cccc43)n2)cc(OC)c1OC" Test system: Itk (Homo sapiens, UniProt Q08881) Read-out: IC50 Value: ?
result: > 10.5 µM

query: Item: "COC(=O)c1ccc(-c2cc(Nc3ncnc(Nc4cc(Cl)cc(Cl)c4)n3)[nH]n2)cc1" Test system: Itk (Homo sapiens, UniProt Q08881) Read-out: IC50 Value: ?
result: > 9.86 µM

###

A collection of compounds and their measured IC50
Molecular target: AKT (Homo sapiens)
Construct: Kinases are expressed as either kinase domains or full length constructs; made in house
Experiment: Kinase inhibition assay (33P transfer), AKT
Format: biochemical
Conditions: Table 2, kinase inhibition class; read-out: AKT3-1
Description: The inhibitor compounds described herein are screened in the following manner. […] Kinases are expressed as either kinase domains or full length constructs fused to glutathione S-transferase (GST) or polyHistidine tagged fusion proteins in either E. colior Baculovirus-High Five expression systems. […]

Examples with their reported IC50 follow.
COc1ccc(Nc2ncnc(Nc3ccccc3C)n2)cc1OC : > 13.3 µM
COc1cc(Nc2ncnc(Nc3ccc4c(c3)Cc3ccccc3-4)n2)cc(OC)c1OC : > 10.2 µM
COc1cc(Nc2ncnc(-c3ccnc(N4CCCCC4)c3)n2)cc(OC)c1OC : > 10.7 µM
CN(c1cccc(Cl)c1)c1ncnc(N(C)c2cccc(Cl)c2)n1 : > 12.5 µM
COc1cc(Nc2ncnc(-n3c(N[C@H](CO)c4ccccc4)nc4ccccc43)n2)cc(OC)c1OC : > 8.76 µM

query: Tell me the measured IC50 of "Brc1cccc(Nc2ncnc(Nc3ccc4c(cnn4Cc4ccccc4)c3)n2)c1" , please.
result: 7.41 to 9.53 µM

query: Tell me the measured IC50 of "COc1cc(Nc2ncnc(Nc3ccc(Br)c4ccccc34)n2)cc(OC)c1OC" , please.
result: > 9.33 µM

query: Tell me the measured IC50 of CCC(O)CNc1ncnc(Nc2ccc(OC)c(OC)c2)n1 (centres unmarked) , please.
result: > 14.1 µM

query: Tell me the measured IC50 of "COc1cc(Nc2ncnc(-c3ccc(C)cc3)n2)cc(OC)c1OC" , please.
result: > 12.8 µM

query: Tell me the measured IC50 of "NC(=O)c1ccc(Nc2ncnc(-c3cccnc3NCc3ccccc3)n2)cc1" , please.
result: > 11.3 µM

query: Tell me the measured IC50 of "COc1cc(Nc2ncnc(-n3c(Nc4ccc(C#N)cc4)nc4ccccc43)n2)cc(OC)c1OC" , please.
result: > 9.1 µM

query: Tell me the measured IC50 of "COc1cc(Nc2ncnc(-n3c(NCc4cccc([N+](=O)[O-])c4)nc4ccccc43)n2)cc(OC)c1OC" , please.
result: > 8.51 µM

query: Tell me the measured IC50 of "CCN(c1ccccc1)c1ncnc(Nc2cc(OC)c(OC)c(OC)c2)n1" , please.
result: > 11.8 µM

query: Tell me the measured IC50 of "COc1cc(Nc2ncnc(-n3c(NCc4ccccc4F)nc4ccccc43)n2)cc(OC)c1OC" , please.
result: > 8.97 µM

query: Tell me the measured IC50 of "COc1cc(Nc2ncnc(Nc3cnc4ccccc4c3)n2)cc(OC)c1OC" , please.
result: > 11.1 µM

query: Tell me the measured IC50 of "Cc1cccc(Nc2ncnc(Nc3ccc4c(cnn4Cc4ccccc4)c3)n2)c1" , please.
result: 5.89 to 8.59 µM

query: Tell me the measured IC50 of "COc1cc(Nc2ncnc(Nc3ccc(O)cc3C)n2)cc(OC)c1OC" , please.
result: > 11.7 µM
